# Assay explanation: AUC (0 to 5 hrs) in Wistar rat at 10 mg/kg, po
# Assay type: ADME, organism-based
# Parameters: dose 10 mg/kg, route oral
# Recorded conditions: plasma
Please respond with reported AUC(0-t) at 4 h for every item in the list.
Give bare numbers, in µM·h.

smiles_entry=CC1(C)c2nc(-c3ccc(F)cc3)c(Nc3ccc(F)c(F)c3)n2CCN1C(=O)CN val=0.367

[in] Entry under review: CC1(C)NCCn2c1nc(-c1ccc(F)cc1)c2Nc1ccc(F)cc1 . Reported AUC(0-t) at 4 h?
[out] 0.423

====

Please respond with reported AUC for every item in the list.
# System: Mus musculus
# Assay explanation: AUC (0 to 24 hrs) in Balb/c mouse at 5 mg/kg, iv
# Type: ADME, organism-based, Plasma
# Design: time < 24 hr, dose 5 mg/kg, route intravenous
# Recorded conditions: in vivo
Please report the result as a number followed by the unit.

compound="CC1(C)c2nc(-c3ccc(F)cc3)c(Nc3ccc(F)cc3)n2CCN1C(=O)CN [GANAPLACIDE]" target_desc="Mus musculus" measurement_kind=AUC val="4.119 µM·h"
compound=CC1(C)c2nc(-c3ccc(F)cc3)c(Nc3ccc(F)c(F)c3)n2CCN1C(=O)CN target_desc="Mus musculus" measurement_kind=AUC val="7.062 µM·h"
compound=CC1(C)NCCn2c1nc(-c1ccc(F)cc1)c2Nc1ccc(F)cc1 target_desc="Mus musculus" measurement_kind=AUC val="9.09 µM·h"
compound=Cc1ccc(Nc2c(-c3ccc(F)cc3)nc3n2CCN(C(=O)C(C)(C)N)C3(C)C)cc1 target_desc="Mus musculus" measurement_kind=AUC val="7.607 µM·h"
compound=NCC(=O)N1CCn2c(nc(-c3ccc(F)cc3)c2Nc2ccc(F)cc2)C1 target_desc="Mus musculus" measurement_kind=AUC val="1.072 µM·h"

Note: attention shifts to another entry.
[in] Tell me reported AUC for CC(C)(N)C(=O)N1CCn2c(nc(-c3ccc(F)cc3)c2Nc2ccc(F)cc2)C1 , tested with Mus musculus.
[out] 3.442 µM·h

====

# Assay explanation: Metabolic stability in human liver microsomes assessed as hepatic extraction ratio by LC/MS/MS analysis in presence of CYP
# Assay type: ADME, Microsome
Measurement kind: hepatic extraction ratio
Numbers only.

smiles_entry=CC1(C)NCCn2c1nc(-c1ccc(F)cc1)c2Nc1ccc(F)cc1 measurement_kind="hepatic extraction ratio" val=0.92
smiles_entry=Cc1ccc(Nc2c(-c3ccc(F)cc3)nc3n2CCNC3)cc1 measurement_kind="hepatic extraction ratio" val=0.79
smiles_entry=Cc1ccc(Nc2c(-c3ccc(F)cc3)nc3n2CCNC3(C)C)cc1 measurement_kind="hepatic extraction ratio" val=0.88

Provide hepatic extraction ratio values for the following items, in order.
1. CC1(C)c2nc(-c3ccc(F)cc3)c(Nc3ccc(F)c(F)c3)n2CCN1C(=O)CN
2. Cc1ccc(Nc2c(-c3ccc(F)cc3)nc3n2CC(=O)NC3)cc1

[out]
1: 0.53; 2: 0.44

====

# Assay explanation: Half life in Wistar rat at 100 mg/kg, po
# Type: ADME, organism-based
# Design: dose 100 mg/kg, route oral
# Recorded conditions: in vivo
Measurement kind: half-life (min)
Give bare numbers, in min.

[in] Entry under review: CC1(C)c2nc(-c3ccc(F)cc3)c(Nc3ccc(F)cc3)n2CCN1C(=O)CN [GANAPLACIDE] . Reported half-life?
[out] 504

====

Please respond with reported half-life for every item in the list.
# Assay explanation: Half life in Balb/c mouse at 20 mg/kg, po
# Format: ADME, organism-based
# Parameters: dose 20 mg/kg, route oral
# Recorded conditions: in vivo
Answers are plain numbers, in h.

compound=Cc1ccc(Nc2c(-c3ccc(F)cc3)nc3n2CCN(C(=O)C(C)(C)N)C3(C)C)cc1 measurement_kind=half-life val=14.5
compound="CC1(C)c2nc(-c3ccc(F)cc3)c(Nc3ccc(F)cc3)n2CCN1C(=O)CN [GANAPLACIDE]" measurement_kind=half-life val=4.35
compound=CC1(C)NCCn2c1nc(-c1ccc(F)cc1)c2Nc1ccc(F)cc1 measurement_kind=half-life val=2.95

Note: attention shifts to another entry.
[in] Entry under review: CC1(C)c2nc(-c3ccc(F)cc3)c(Nc3ccc(F)c(F)c3)n2CCN1C(=O)CN . Reported half-life?
[out] 5.21

====

# Assay explanation: Cmax in Wistar rat at 10 mg/kg, po
# Assay type: ADME, organism-based
# Set-up: dose 10 mg/kg, route oral
# Recorded conditions: in vivo
Measurement kind: Cmax (nM)
Numbers only, in nM.

[in] Entry under review: CC1(C)c2nc(-c3ccc(F)cc3)c(Nc3ccc(F)cc3)n2CCN1C(=O)CN [GANAPLACIDE] . Reported Cmax?
[out] 91

====

# Assay explanation: Cytotoxicity against mouse BA/F3 cells
# Assay type: cell-based
# Recorded conditions: baf3
Measurement kind: CC50

[in] Entry under review: CC1(C)c2nc(-c3ccc(F)cc3)c(Nc3ccc(F)cc3)n2CCN1C(=O)CN [GANAPLACIDE] . Reported CC50?
[out] > 12 µM

====

# Assay explanation: Tmax in Wistar rat at 100 mg/kg, po
# Type: ADME, organism-based
# Parameters: dose 100 mg/kg, route oral
# Recorded conditions: in vivo
Measurement kind: Tmax (h)
Answers are plain numbers, in h.

[in] Entry under review: CC1(C)c2nc(-c3ccc(F)cc3)c(Nc3ccc(F)cc3)n2CCN1C(=O)CN [GANAPLACIDE] . Reported Tmax?
[out] 8

====

Please respond with reported Papp A→B for every item in the list.
# Assay explanation: Apparent permeability across apical to basolateral side in human Caco2 cells by LC/MS analysis
# Assay type: ADME, cell-based
# Recorded conditions: Caco-2
Numbers only, in ×10⁻⁶ cm/s.

Reference set, count: 3
compound=Cc1ccc(Nc2c(-c3ccc(F)cc3)nc3n2CCNC3(C)C)cc1 val=15.6
compound=Cc1ccc(Nc2c(-c3ccc(F)cc3)nc3n2CC(=O)NC3)cc1 val=15
compound=Cc1ccc(Nc2c(-c3ccc(F)cc3)nc3n2CCNC3)cc1 val=8.2

Provide Papp A→B values for the following items, in order.
1. CC1(C)c2nc(-c3ccc(F)cc3)c(Nc3ccc(F)cc3)n2CCN1C(=O)CN [GANAPLACIDE]
2. CC1(C)c2nc(-c3ccc(F)cc3)c(Nc3ccc(F)c(F)c3)n2CCN1C(=O)CN

[out]
1: 1.26; 2: 0.61

Provide Papp A→B values for the following items, in order.
1. CC(C)(N)C(=O)N1CCn2c(nc(-c3ccc(F)cc3)c2Nc2ccc(F)cc2)C1(C)C
2. Cc1ccc(Nc2c(-c3ccc(F)cc3)nc3n2CCN(C(=O)C(C)(C)N)C3(C)C)cc1

[out]
[1.2, 3.5]

====

Please respond with reported EC50 for every item in the list.
# System: Plasmodium falciparum
# Assay explanation: Antimalarial activity against Plasmodium falciparum 3D7 after 72 hrs by SYBR green fluorescence assay
# Type: functional, organism-based
# Recorded conditions: 3D7, 72 h
Numbers only, in nM.

smiles_entry=CC(C)(N)C(=O)N1CCn2c(nc(-c3ccc(F)cc3)c2Nc2ccc(F)cc2)C1 unit_descriptor=nM val=20
smiles_entry=CC(C)(N)C(=O)N1CCn2c(nc(-c3ccc(F)cc3)c2Nc2ccc(F)c(F)c2)C1(C)C unit_descriptor=nM val=13
smiles_entry=NCC(=O)N1CCn2c(nc(-c3ccc(F)cc3)c2Nc2ccc(F)cc2)C1 unit_descriptor=nM val=24

Provide EC50 values for the following items, in order.
1. Cc1ccc(Nc2c(-c3ccc(F)cc3)nc3n2CCNC3)cc1
2. CC(C)(N)C(=O)N1CCn2c(nc(-c3ccc(F)cc3)c2Nc2ccc(F)cc2)C1(C)C
3. CC1(C)c2nc(-c3ccc(F)cc3)c(Nc3ccc(F)c(F)c3)n2CCN1C(=O)CN
4. Cc1ccc(Nc2c(-c3ccc(F)cc3)nc3n2CCN(C(=O)C(C)(C)N)C3(C)C)cc1

[out]
161
10
4
2

====

# Tested on: Plasmodium falciparum
# Assay explanation: Antimalarial activity against Plasmodium falciparum 3D7 after 72 hrs by SYBR green fluorescence assay
# Type: functional, organism-based
# Recorded conditions: 3D7, 72 h
Please respond with reported EC50 for every item in the list.
Answers are plain numbers, in nM.

smiles_entry=CC1(C)Cn2c(nc(-c3ccc(F)cc3)c2Nc2ccc(F)cc2)CN1C(=O)CN target_desc="Plasmodium falciparum" measurement_kind=EC50 val=82
smiles_entry=C[C@@H]1c2nc(-c3ccc(F)cc3)c(Nc3ccc(F)c(Cl)c3)n2CCN1C(=O)CN target_desc="Plasmodium falciparum" measurement_kind=EC50 val=31
smiles_entry=CC1(C)NCCn2c1nc(-c1ccc(F)cc1)c2Nc1ccc(F)cc1 target_desc="Plasmodium falciparum" measurement_kind=EC50 val=5
smiles_entry=Cc1ccc(Nc2c(-c3ccc(F)cc3)nc3n2CCNC3(C)C)cc1 target_desc="Plasmodium falciparum" measurement_kind=EC50 val=13
smiles_entry=CC1(C)CN(C(=O)CN)Cc2nc(-c3ccc(F)cc3)c(Nc3ccc(F)cc3)n21 target_desc="Plasmodium falciparum" measurement_kind=EC50 val=80

Provide EC50 values for the following items, in order.
1. Cc1ccc(Nc2c(-c3ccc(F)cc3)nc3n2CC(=O)NC3)cc1
2. C[C@H]1c2nc(-c3ccc(F)cc3)c(Nc3ccc(F)c(Cl)c3)n2CCN1C(=O)CN
3. NCC(=O)N1CCn2c(nc(-c3ccc(F)cc3)c2Nc2ccc(F)c(Cl)c2)C1

[out]
1. 1080
2. 29
3. 4

All figures here come from ChEMBL document CHEMBL2057141.
